Overview of recorded Biological Activity, S. aureus ATCC6538p for various molecules
System: S. aureus
Assay: Biological activity against bacterial strains: S. aureus
Format: cell-based, Staphylococcus aureus
Parameters: unit not given here
Conditions: strain ATCC6538p
The response must contain the number and no unit.

Study these solved cases before continuing.
| molecule | parameter | recorded value |
| --- | --- | --- |
| CCC1OC(=O)CC(O)C(C)C(OC2OC(C)C(O)C(N(C)C)C2O)C(CC=O)CC(C)C(=NOCC=Cc2ccc3nccnc3c2)C=CC(C)=CC1CO (stereo not drawn) | Biological Activity, S. aureus ATCC6538p | 0.20 |
| CCC1OC(=O)CC(O)C(C)C(OC2OC(C)C(O)C(N(C)C)C2O)C(CCN2CC(C)CC(C)C2)CC(C)C(=NOCCOc2ccccc2)C=CC(C)=CC1CO (stereo not drawn) | Biological Activity, S. aureus ATCC6538p | 0.78 |

Exam item: Fill in the recorded Biological Activity, S. aureus ATCC6538p for this molecule, with S. aureus as test system: CCC1OC(=O)CC(O)C(C)C(OC2OC(C)C(O)C(N(C)C)C2O)C(CCN2CC(C)CC(C)C2)CC(C)C(=NOCCCOc2ccc3ncccc3c2)C=CC(C)=CC1COC1OC(C)C(O)C(OC)C1OC (single isomer, unassigned) [Compound L]
Marked response: 0.20
